# METHOD SUMMARY: oil/water partition coefficient (K-value), static batch experiments, model oil
# Type: physicochemical
# STATED CONDITIONS: pH (aqueous phase) 8.0; ionic strength in aqueous phase 0.776; model oil (isooctane 60%/toluene 30%/1-octanol 10%); 50° C.
Listed here: items and their measured oil/water partition coefficient, K-value.

STRUCTURE STRING: CCCOC(=O)c1ccc(CO)cc1F
oil/water partition coefficient, K-value: 48.7
--
STRUCTURE STRING: COC(=O)c1ccc(CO)cc1F
oil/water partition coefficient, K-value: 3.3
--
STRUCTURE STRING: CCOC(=O)c1ccc(CO)cc1F
oil/water partition coefficient, K-value: 11.8
--
STRUCTURE STRING: CCCCOC(=O)c1ccc(CO)cc1F
oil/water partition coefficient, K-value: 132.2
